# target: Neuronal acetylcholine receptor; alpha3/beta4 (Homo sapiens, UniProt P30926+P32297)
# Sequence (P30926 whole entry): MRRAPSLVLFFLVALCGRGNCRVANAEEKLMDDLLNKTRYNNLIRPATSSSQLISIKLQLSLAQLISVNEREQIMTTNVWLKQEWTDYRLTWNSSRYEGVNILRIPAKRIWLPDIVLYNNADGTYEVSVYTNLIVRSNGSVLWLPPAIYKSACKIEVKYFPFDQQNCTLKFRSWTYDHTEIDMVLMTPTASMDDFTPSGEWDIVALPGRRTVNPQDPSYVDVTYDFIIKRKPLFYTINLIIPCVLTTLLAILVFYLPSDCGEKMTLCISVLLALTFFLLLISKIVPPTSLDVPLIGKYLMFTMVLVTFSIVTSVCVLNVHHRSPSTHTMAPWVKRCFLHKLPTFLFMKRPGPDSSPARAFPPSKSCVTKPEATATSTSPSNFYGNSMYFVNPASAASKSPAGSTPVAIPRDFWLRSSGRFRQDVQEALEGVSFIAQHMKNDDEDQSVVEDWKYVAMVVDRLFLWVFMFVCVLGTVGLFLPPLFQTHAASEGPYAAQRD
# Sequence (P32297 whole entry): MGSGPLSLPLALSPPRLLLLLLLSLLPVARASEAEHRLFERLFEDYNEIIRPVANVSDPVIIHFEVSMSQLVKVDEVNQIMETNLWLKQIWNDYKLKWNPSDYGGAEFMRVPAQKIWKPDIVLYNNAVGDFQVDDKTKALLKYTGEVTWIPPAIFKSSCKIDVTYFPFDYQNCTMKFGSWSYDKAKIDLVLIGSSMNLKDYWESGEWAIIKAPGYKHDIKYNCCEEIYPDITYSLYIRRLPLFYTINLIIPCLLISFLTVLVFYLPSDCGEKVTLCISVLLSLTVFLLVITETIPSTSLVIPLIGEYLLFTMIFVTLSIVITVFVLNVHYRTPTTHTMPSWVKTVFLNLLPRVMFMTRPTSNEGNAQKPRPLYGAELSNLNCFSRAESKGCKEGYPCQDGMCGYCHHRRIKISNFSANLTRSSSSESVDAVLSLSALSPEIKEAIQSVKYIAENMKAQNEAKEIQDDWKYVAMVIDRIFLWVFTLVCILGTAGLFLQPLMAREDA
# experimental details: Antagonist activity at alpha3beta4 nAChR (unknown origin) expressed in Xenopus laevis oocytes assessed as inhibition of Ach-induced channel activation at -100 mV holding potential treated for 1 min by two electrode voltage-clamp assay
property label: pIC50
Note on pIC50: it is the negative log10 of concentration, concentration in mol/L.

Example entries begin here.
[[record]]
compound_structure = "CCCC(=O)N[C@@H](Cc1ccc(O)cc1)C(=O)NCCCNC[C@H]1C[C@H]1CNCCCN"
target = "Neuronal acetylcholine receptor; alpha3/beta4 (Homo sapiens, UniProt P30926+P32297)"
property_label = "pIC50"
experimental_result = 8.84

[[record]]
compound_structure = "NCCCNCCCCNCCCNC(=O)[C@H](CC1CCCCC1)NC(=O)C1CCCC1"
target = "Neuronal acetylcholine receptor; alpha3/beta4 (Homo sapiens, UniProt P30926+P32297)"
property_label = "pIC50"
experimental_result = 9.19


API: the following record is the query input.
In: Which pIC50 value belongs to `NCCCNCCCCNCCCNC(=O)[C@H](Cc1ccc(O)cc1)NC(=O)C1CCCC1` ?
Out: 9.24

###

Known IC50 of a selection of molecules
# target: Neuronal acetylcholine receptor; alpha3/beta4 (Homo sapiens, UniProt P30926+P32297)
# experimental details: Antagonist activity at alpha3beta4 nAChR (unknown origin) expressed in Xenopus laevis oocytes assessed as inhibition of Ach-induced channel activation at -100 mV holding potential treated for 1 min by two electrode voltage-clamp assay
# Type: cell-based
Your answer should be a number followed by the unit of measure.

Example entries begin here.
[[record]]
molecule = "NCCCNCCCCNCCCNC(=O)[C@H](Cc1ccc(O)cc1)NC(=O)C1CCCCC1"
experimental_result = "0.46 nM"

[[record]]
molecule = "CCCC(=O)N[C@@H](CC1CCCCC1)C(=O)NCCCNCCCCNCCCN"
experimental_result = "2.62 nM"

[[record]]
molecule = "CCCC(=O)N[C@@H](Cc1ccc(O)cc1)C(=O)NCCCNCCCCNCCCN [PHILANTHOTOXIN 343]"
experimental_result = "7.65 nM"

[[record]]
molecule = "NCCCNCCCCNCCCNC(=O)[C@H](CC1CCCCC1)NC(=O)c1ccccc1"
experimental_result = "0.37 nM"


API: the following record is the query input.
In: Which IC50 value belongs to `NCCCNCCCCNCCCNC(=O)[C@H](CC1CCCCC1)NC(=O)Cc1cccc2ccccc12` ?
Out: 0.16 nM

###

# target: Neuronal acetylcholine receptor; alpha3/beta4 (Homo sapiens, UniProt P30926+P32297)
# experimental details: Antagonist activity at alpha3beta4 nAChR (unknown origin) expressed in Xenopus laevis oocytes assessed as inhibition of Ach-induced channel activation at -100 mV holding potential treated for 1 min by two electrode voltage-clamp assay
Output condition met for records whose IC50 is lower than 2 nM, condition not met for records at or above 2 nM.

[[record]]
molecule = "NCCCNCCCCNCCCNC(=O)[C@H](CC1CCCCC1)NC(=O)/C=C/c1ccccc1"
target = "Neuronal acetylcholine receptor; alpha3/beta4 (Homo sapiens, UniProt P30926+P32297)"
group_label = "condition met"


In: Regarding `NCCCNCCCCNCCCNC(=O)[C@H](CC1CCCCC1)NC(=O)C1CC1` , kindly confirm whether its IC50 is beneath 2 nM.
Out: condition not met

In: Next record, please: NCCCNCCCCNCCCNC(=O)[C@H](CC1CCCCC1)NC(=O)CC1CC2CCC1C2 (stereo not given in full)
Out: condition met

In: Next record, please: `CCCC(=O)N[C@@H](CCc1ccccc1)C(=O)NCCCNCCCCNCCCN`
Out: condition met

Source listed as ChEMBL document CHEMBL4359833.
